For each entry below, report its Umami EC50 ratio value.
- Test Target: T1R1/T1R3 (Homo sapiens (Human), UniProt Q7RTX0+Q7RTX1)
- Sequence (Q7RTX1 21-841): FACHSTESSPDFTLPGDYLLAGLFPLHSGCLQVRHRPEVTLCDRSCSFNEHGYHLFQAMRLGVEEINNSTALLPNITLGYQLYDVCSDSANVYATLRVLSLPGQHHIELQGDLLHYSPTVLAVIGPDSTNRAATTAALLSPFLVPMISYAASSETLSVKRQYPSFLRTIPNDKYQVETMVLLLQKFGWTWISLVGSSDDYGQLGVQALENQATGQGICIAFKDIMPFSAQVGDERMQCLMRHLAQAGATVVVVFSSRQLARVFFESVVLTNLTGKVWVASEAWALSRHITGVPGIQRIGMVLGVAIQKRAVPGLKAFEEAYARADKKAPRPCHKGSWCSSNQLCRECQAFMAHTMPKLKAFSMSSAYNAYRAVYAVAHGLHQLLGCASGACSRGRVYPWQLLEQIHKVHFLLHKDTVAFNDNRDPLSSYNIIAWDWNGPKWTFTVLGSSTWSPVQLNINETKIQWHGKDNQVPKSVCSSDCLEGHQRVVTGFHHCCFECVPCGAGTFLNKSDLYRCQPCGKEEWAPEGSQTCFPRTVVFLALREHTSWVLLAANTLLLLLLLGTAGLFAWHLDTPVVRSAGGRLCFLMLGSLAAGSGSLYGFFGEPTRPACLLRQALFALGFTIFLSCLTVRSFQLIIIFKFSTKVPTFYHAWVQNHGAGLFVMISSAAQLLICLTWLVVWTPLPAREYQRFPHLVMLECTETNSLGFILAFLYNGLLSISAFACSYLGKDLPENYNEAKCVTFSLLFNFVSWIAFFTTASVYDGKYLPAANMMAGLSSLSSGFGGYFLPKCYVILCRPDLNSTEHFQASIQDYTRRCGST
- Sequence (Q7RTX0 21-852 C757R): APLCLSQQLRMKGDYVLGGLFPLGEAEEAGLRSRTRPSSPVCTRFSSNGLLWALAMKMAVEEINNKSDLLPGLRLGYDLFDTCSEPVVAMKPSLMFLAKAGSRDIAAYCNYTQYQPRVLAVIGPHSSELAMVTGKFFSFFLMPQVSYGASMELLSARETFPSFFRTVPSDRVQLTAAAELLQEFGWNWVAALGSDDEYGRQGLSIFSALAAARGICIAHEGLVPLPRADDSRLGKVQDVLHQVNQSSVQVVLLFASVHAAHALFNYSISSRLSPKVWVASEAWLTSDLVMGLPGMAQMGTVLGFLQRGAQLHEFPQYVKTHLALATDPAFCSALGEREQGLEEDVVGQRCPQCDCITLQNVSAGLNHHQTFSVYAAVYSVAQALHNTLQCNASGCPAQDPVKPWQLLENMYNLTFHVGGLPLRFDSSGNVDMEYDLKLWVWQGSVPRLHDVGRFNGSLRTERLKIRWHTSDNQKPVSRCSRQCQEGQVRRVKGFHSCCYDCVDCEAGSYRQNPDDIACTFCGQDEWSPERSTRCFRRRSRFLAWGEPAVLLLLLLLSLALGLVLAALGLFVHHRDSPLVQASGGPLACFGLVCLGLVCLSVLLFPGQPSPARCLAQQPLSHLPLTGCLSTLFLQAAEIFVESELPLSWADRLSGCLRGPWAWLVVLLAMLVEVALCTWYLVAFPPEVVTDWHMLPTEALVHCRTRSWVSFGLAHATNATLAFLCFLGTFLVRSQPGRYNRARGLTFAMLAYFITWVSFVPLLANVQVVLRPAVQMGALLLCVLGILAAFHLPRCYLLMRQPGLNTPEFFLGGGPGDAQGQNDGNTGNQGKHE
- Procedure Details: Umami enhancement assay: MSG dose response with and without compound
- Assay type: cell-based
- Study Conditions: Table 5; compound concentration not given
Respond using a number only.

Q: Which Umami EC50 ratio value is on record for CC1CCCCC1NC(=O)c1cccc(C(F)(F)F)c1 (stereo not drawn) [Compound E59] ?
A: 2.07

Q: Which Umami EC50 ratio value is on record for COc1c(Cl)ccc(Cl)c1C(=O)Nc1ccccc1F [Compound E84] ?
A: 16.51

Q: Which Umami EC50 ratio value is on record for CC1CCCCC1NC(=O)c1ccnc(Cl)c1 (stereo not drawn) [Compound E56] ?
A: 2.08

Q: Which Umami EC50 ratio value is on record for COc1cc(C(=O)NC2CCCCC2C)cc(Cl)n1 (stereo not drawn) [Compound E40] ?
A: 9.77

Q: Which Umami EC50 ratio value is on record for CC1CCCCC1NC(=O)c1ccc(F)c(F)c1 (stereo not drawn) [Compound E81] ?
A: 6.98

Q: Which Umami EC50 ratio value is on record for O=C(NC1CCCc2ccccc21)c1cccc(Cl)c1O (stereo not drawn) [Compound E7] ?
A: 4.04

---

- Test Target: human sweet receptor (Homo sapiens (Human), UniProt Q7RTX0+Q8TE23)
- Sequence (Q8TE23 other isoform, or with tags, fused parts or gaps): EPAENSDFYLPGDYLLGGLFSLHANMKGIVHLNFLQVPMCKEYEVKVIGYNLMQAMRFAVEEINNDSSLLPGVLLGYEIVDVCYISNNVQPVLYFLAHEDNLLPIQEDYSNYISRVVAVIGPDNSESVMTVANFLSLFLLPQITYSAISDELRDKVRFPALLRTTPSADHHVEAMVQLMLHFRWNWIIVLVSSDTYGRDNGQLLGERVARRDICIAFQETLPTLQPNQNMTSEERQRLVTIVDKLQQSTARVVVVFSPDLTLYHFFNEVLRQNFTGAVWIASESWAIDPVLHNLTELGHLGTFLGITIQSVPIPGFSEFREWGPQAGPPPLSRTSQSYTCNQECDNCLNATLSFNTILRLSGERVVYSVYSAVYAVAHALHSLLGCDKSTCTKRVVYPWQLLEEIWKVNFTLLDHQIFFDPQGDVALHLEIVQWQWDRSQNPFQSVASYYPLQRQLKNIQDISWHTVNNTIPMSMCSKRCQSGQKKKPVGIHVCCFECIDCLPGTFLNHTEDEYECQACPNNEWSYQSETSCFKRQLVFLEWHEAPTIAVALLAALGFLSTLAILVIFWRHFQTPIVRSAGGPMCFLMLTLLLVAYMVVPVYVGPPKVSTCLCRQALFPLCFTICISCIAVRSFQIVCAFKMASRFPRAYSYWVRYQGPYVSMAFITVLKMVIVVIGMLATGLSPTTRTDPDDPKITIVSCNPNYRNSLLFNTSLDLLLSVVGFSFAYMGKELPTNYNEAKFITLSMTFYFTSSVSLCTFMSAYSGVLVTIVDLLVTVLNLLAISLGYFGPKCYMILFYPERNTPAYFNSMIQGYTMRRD
- Sequence (Q7RTX0 21-852 C757R): as the sequence (Q7RTX0 21-852 C757R) above
- Procedure Details: Dose responses of human sweet receptor with lactisole
- Assay type: cell-based
- Study Conditions: 10 μM lactisole; read-out: EC50 of sweetener
Quantity Measured: EC50 (mM)
Value expressed in mM; do not type the unit.

Q: What value of EC50 on human sweet receptor (Homo sapiens (Human), UniProt Q7RTX0+Q8TE23) does OC[C@H]1O[C@@](CO)(O[C@H]2O[C@H](CO)[C@@H](O)[C@H](O)[C@H]2O)[C@@H](O)[C@@H]1O have?
A: 24.7

Q: What value of EC50 on human sweet receptor (Homo sapiens (Human), UniProt Q7RTX0+Q8TE23) does N[C@H](Cc1c[nH]c2ccccc12)C(=O)O have?
A: 0.6

---

For each entry below, report its pEC50 value.
- Test Target: human sweet receptor (Homo sapiens (Human), UniProt Q7RTX0+Q8TE23)
- Procedure Details: Dose responses of human sweet receptor with lactisole
- Type: cell-based
- Study Conditions: 0 μM lactisole; read-out: EC50 of sweetener
As a rule, pEC50 stands for the negative log10 of the concentration, concentration in M.

Q: Which pEC50 value is on record for N[C@H](Cc1c[nH]c2ccccc12)C(=O)O ?
A: 3.43

Q: Which pEC50 value is on record for OC[C@H]1O[C@@](CO)(O[C@H]2O[C@H](CO)[C@@H](O)[C@H](O)[C@H]2O)[C@@H](O)[C@@H]1O ?
A: 1.71

---

- Test Target: T1R1/T1R3 (Homo sapiens (Human), UniProt Q7RTX0+Q7RTX1)
- Procedure Details: Umami enhancement assay: MSG dose response with and without compound
- Assay type: cell-based
- Study Conditions: Table 4; compound @ 1 uM
Quantity Measured: Ec50 ratio (vs. MSG)
Respond using a number only.

Q: What value of Ec50 ratio (vs. MSG) on T1R1/T1R3 (Homo sapiens (Human), UniProt Q7RTX0+Q7RTX1) does CCC(CC)NC(=O)/C=C/c1ccc(OC)cc1 have?
A: 9.62

Q: What value of Ec50 ratio (vs. MSG) on T1R1/T1R3 (Homo sapiens (Human), UniProt Q7RTX0+Q7RTX1) does COc1ccc(/C=C/C(=O)NC(C)CCc2ccccc2)cc1OC (stereo not drawn) have?
A: 3.13

Q: What value of Ec50 ratio (vs. MSG) on T1R1/T1R3 (Homo sapiens (Human), UniProt Q7RTX0+Q7RTX1) does COc1ccc(/C=C/C(=O)NC(C(C)C)C(C)C)cc1 [Compound D1] have?
A: 3.46

Q: What value of Ec50 ratio (vs. MSG) on T1R1/T1R3 (Homo sapiens (Human), UniProt Q7RTX0+Q7RTX1) does CC(CCc1ccccc1)NC(=O)/C=C/c1cccs1 (stereo not drawn) have?
A: 9.73

Q: What value of Ec50 ratio (vs. MSG) on T1R1/T1R3 (Homo sapiens (Human), UniProt Q7RTX0+Q7RTX1) does CCCC(CCC)NC(=O)/C=C/c1cccs1 have?
A: 6.3

Q: What value of Ec50 ratio (vs. MSG) on T1R1/T1R3 (Homo sapiens (Human), UniProt Q7RTX0+Q7RTX1) does CCC(COC)NC(=O)/C=C/c1ccc(OC)cc1 (stereo not drawn) have?
A: 8.48
